I'd appreciate it if you could supply MIC values for the items below.
- System: P. aeruginosa NB52023 (efflux deficient K1542, ΔmexX ΔmexB)
- Protocol: microbe, parasite or virus in culture
- Type: cell-based
- Experimental setup: Pseudomonas aeruginosa, 20 h, read-out: Antibacterial activity (MIC) NB52023
Express your answer in µg/mL, writing the number without its unit.

What does the record list as MIC for Cc1c(N2CC[C@@H]([C@H](C)N)C2)c(F)c(F)c2ccc(=O)n(C3CC3)c12.O=C(O)C(F)(F)F [Example 106] ?
0.5

Could you do the same for Cc1c(N2CC[C@H](N)C2)c(F)c(F)c2c(CN)cc(=O)n(C3CC3)c12 [Example 83.6] , please?
0.25

Could you do the same for COC(=O)C#Cc1cc(=O)n(C2CC2)c2c(C)c(N3CC[C@@H]([C@H](C)N)C3)c(F)cc12 [Example 26] , please?
16
